# System: HEK-293T
# Experimental details: Incucyte cell viability with HEK293T; note: unitless GR value; below 1 slowed growth and below 0 cell loss
# Assay type: toxicity, cell-based
# Experimental context: human, 12 h, 10 µM, compound concentration 10 uM, replicate number 2
Rule: MET for Growth Rate not less than 0.7, NOT MET for anything less.

Below, 8 compounds whose answers are already recorded.
INSERT INTO measurements (compound, label) VALUES
  ('O=c1cccc2n1C[C@@H]1CNC[C@H]2C1', 'MET'),
  ('CCNc1ccc(-c2nn(-c3ccccc3C)c3c2C(C)Cc2nc(NC(=O)OC)sc2-3)cn1.O=C(O)C(F)(F)F (stereo not drawn)', 'NOT MET'),
  ('FC(F)(F)c1ccc(Nc2ncnc3cc(-c4ncccc4C(F)(F)F)ccc23)cc1', 'MET'),
  ('CCCN1C(=O)c2ccc(Cl)cc2Nc2ncccc21', 'MET'),
  ('O=C(NC[C@@H]1[C@H]2CN(C(=O)OCc3cc(C(F)(F)F)cc(C(F)(F)F)c3)C[C@@H]12)c1ccc2[nH]nnc2c1', 'NOT MET'),
  ('CCn1ccc(Nc2ncc3c(n2)-c2c(nn(C)c2-c2ccc(-c4cnn(C)c4)cc2Cl)CC3)n1', 'NOT MET'),
  ('CNC(=O)c1c(F)cccc1Nc1nc(Nc2cc3c(cc2OC)CCN3C(=O)CN(C)C)nc2[nH]ccc12', 'MET'),
  ('C=CC(=O)N1CCC[C@@H](n2nc(-c3ccc(Oc4ccccc4)cc3)c3c(N)ncnc32)C1', 'NOT MET');

Enquiry: Threshold query (Growth Rate >= 0.7) on CCCC(=O)C1CCN(c2ncnc3c2CN(C(=O)c2ccc(-c4ccccc4)cc2)CC3)CC1
Return: MET

Enquiry: Answer whether Growth Rate of O=C(Nc1ccccc1C(=O)O)c1cc(S(=O)(=O)c2ccccc2)ccc1Cl is greater than or equal to 0.7.
Return: MET

Enquiry: Growth Rate >= 0.7 for CC(=O)c1c(C)c2cnc(Nc3ccn(C)n3)nc2n(C2CCCC2)c1=O ?
Return: MET

Enquiry: Form field: Growth Rate at least 0.7? Entry: COc1ncc(-c2cc(-c3ncc(CN4C[C@@H](C)O[C@@H](C)C4)o3)c3cn[nH]c3c2)cc1NS(C)(=O)=O
Return: NOT MET

Enquiry: Please tell me: is the compound CS(=O)(=O)CCNCc1ccc(-c2ccc3ncnc(Nc4ccc(OCc5cccc(F)c5)c(Cl)c4)c3c2)o1 at or over 0.7 in terms of Growth Rate?
Return: MET

Enquiry: Hi, just wondering whether Nc1ncnc2[nH]c(-c3ccccc3)nc12 shows Growth Rate of 0.7 or higher.
Return: NOT MET

====

# System: HEK-293T
# Experimental details: Incucyte cell viability with HEK293T; note: unitless GR value; below 1 slowed growth and below 0 cell loss
# Type: toxicity, cell-based
# Experimental context: human, 6 h, 10 µM, compound concentration 10 uM, replicate number 1
Hi! Could you tag entries with Growth Rate below -0.2 as fulfilled, and those at or above as not fulfilled? Much appreciated.

Reference set, count: 5
INSERT INTO results (compound, label) VALUES
  ('O=S(=O)(Nc1ccc(C(O)(C(F)(F)F)C(F)(F)F)cc1)c1cccs1', 'not fulfilled'),
  ('Cc1c(NC(=O)COc2ccc(Cl)cc2C(=O)c2cc(F)cc(C(F)(F)F)c2)ccc(C(=O)O)c1F', 'not fulfilled'),
  ('Cc1cc(C2CCCNC2)ccc1Nc1ncc(Br)c(NCc2cccc3c2C(C)(C)C(=O)N3)n1 (stereo not given)', 'not fulfilled'),
  ('CCC(=N\O)/C(C)=C/c1ccc(F)cc1', 'not fulfilled'),
  ('Cl.Cl.NC1(c2ccc(-c3nc4ccn5c(=O)[nH]nc5c4cc3-c3ccccc3)cc2)CCC1', 'fulfilled');

Enquiry: # TODO verify Growth Rate < -0.2 strictly for this compound: CC(C)(C)NC(=O)c1cncn1C1CCN(c2ccc(-c3nnc(C(F)(F)F)o3)cn2)CC1
Return: not fulfilled

Enquiry: Given the entry CCc1nc(-c2cccc(C)c2)c(-c2ccnc(NC(=O)c3ccccc3)c2)s1 , would its reported Growth Rate be below -0.2?
Return: not fulfilled

Enquiry: Please determine if CC(C)c1cnn2c(NCc3ccccc3)cc(NCCCCCCN)nc12.Cl is below -0.2 in terms of Growth Rate.
Return: not fulfilled

Enquiry: hey, is Growth Rate for C/C=C1\C(=O)CC2C3CCC4=CC(=O)CC[C@]4(C)C3CC[C@]12C (stereo not given in full) lower than -0.2 or not?
Return: not fulfilled

Enquiry: Please state whether Growth Rate is below -0.2 for CCN(C)C(=O)c1ccc2c(c1)NC(=O)/C2=C(\NC1CCN(C)CC1)c1ccccc1
Return: not fulfilled

Enquiry: Here's an entry: O=C1NCc2ccc3c(-c4cccc(Cl)c4)c[nH]c3c21 . Is its Growth Rate below -0.2?
Return: fulfilled

Enquiry: Just wondering, is Growth Rate of CC(C)Oc1ccc(-c2cnc3c(-c4ccnc5ccccc45)cnn3c2)cc1 below -0.2?
Return: fulfilled

Enquiry: Growth Rate strictly < -0.2 for this compound? CN1CCN(C(=O)c2ccc(N(C)c3ncc(C(F)(F)F)c(N[C@@H]4CCC[C@@H]4C(N)=O)n3)cc2)CC1.Cl
Return: not fulfilled

Enquiry: # strict comparison: is reported Growth Rate < -0.2? input = Cc1cc(CN)cc(C)c1-c1ncn(C)c1-c1ccnc2cc(F)ccc12.Cl
Return: not fulfilled

Enquiry: Growth Rate strictly < -0.2 for this compound? Cl.NCC(O)c1ccc(O)cc1 (stereo not given) [OCTOPAMINE HYDROCHLORIDE]
Return: not fulfilled

Enquiry: Please determine if COc1ccc(CCCN2CCC(COC(c3ccccc3)c3ccccc3)CC2)cc1.Cl is below -0.2 in terms of Growth Rate.
Return: fulfilled

Enquiry: Below -0.2 on Growth Rate? Entry CN(C)C/C=C/C(=O)Nc1cccc(S(=O)(=O)N2CCC(NC(=O)c3n[nH]cc3NC(=O)c3c(Cl)cc(Cl)cc3Cl)CC2)c1
Return: fulfilled

Enquiry: Growth Rate under -0.2? Item: Cc1c(-c2cc(-c3ccccc3Cl)no2)cnn1C1CCNCC1.Cl
Return: fulfilled

Enquiry: Determine whether this compound shows Growth Rate lower than -0.2 (ties excluded): O=C1CN(c2ccccc2F)C(NCCN2CCOCC2)=C1c1nc2cc(Br)ccc2c(=O)[nH]1
Return: not fulfilled

====

Documented Growth Rate across a set of compounds
# Test system: HEK-293T
# Experimental details: Incucyte cell viability with HEK293T; note: unitless GR value; below 1 slowed growth and below 0 cell loss
# Format: toxicity, cell-based
# Experimental context: human, 12 h, 10 µM, compound concentration 10 uM, replicate number 2
# print the numeric value only

# count of solved cases: 3
INSERT INTO assay_data (compound, measured_value) VALUES
  ('O=C1Nc2nc(-c3c(O)cccc3OCC3CC3)cc([C@@H]3CCCNC3)c2CO1', 0.47),
  ('CC1(C)C(=O)N([C@H]2CCc3c(O)cccc32)c2nc(Nc3cccc(CN4CCCC4)c3)ncc21', -0.41),
  ('CC(=O)c1ccc2c(c1)/C(=C(/Nc1cccc(C#N)c1)c1ccc3c(c1)OCCO3)C(=O)N2', 0.12);

Enquiry: What Growth Rate value was documented for this compound, CC(C)(C)c1cnc(CSc2cnc(NC(=O)C3CCN(CC(=O)NCCOCCOCCOCCNc4cccc5c4C(=O)N(C4CCC(=O)NC4=O)C5=O)CC3)s2)o1 (stereo unspecified) ?
Return: -0.62

Enquiry: Growth Rate for C=CC[C@@H]1/C=C(\C)C[C@H](C)C[C@H](OC)[C@H]2O[C@@](O)(C(=O)C(=O)N3CCCC[C@H]3C(=O)O[C@H](/C(C)=C/[C@@H]3CC[C@@H](O)[C@H](OC)C3)[C@H](C)[C@@H](O)CC1=O)[C@H](C)C[C@@H]2OC.O ?
Return: 0.99

Enquiry: Could you share which Growth Rate value was measured for CNc1nc(Nc2ccc(C(=O)N3CCOCC3)cc2OC)nc2[nH]cc(Cl)c12 ?
Return: -0.05

Enquiry: Fill in: Growth Rate of C[C@@H](CO)CCC[C@@H](C)[C@H]1CC[C@H]2[C@@H]3CC=C4C[C@@H](O)CC[C@]4(C)[C@H]3CC[C@]12C is ___
Return: 0.79

Enquiry: Please give the measured Growth Rate for this compound: Cc1c(C(=O)Nc2cccc(C(F)(F)F)c2)cc(-c2ccccc2)n1CCCN1CCOCC1.Cl
Return: 0.01

Enquiry: # get_value(readout='Growth Rate', item= CC[C@H](CC(=O)O)n1c(=O)c2ncccc2n(Cc2cn(C)c3cc(C)cc(C)c23)c1=O )
Return: 0.58

Enquiry: What value of Growth Rate has been reported for the following compound? CC(C)c1cnc(NC(=O)Cc2ccccc2)s1
Return: 0.69

Enquiry: Return reported Growth Rate; argument: Cc1cc(-c2cc3ncccc3c(OC[C@H]3CCCNC3)n2)ccc1N(C)C.O=C(O)C(F)(F)F
Return: -0.44

Enquiry: Endpoint output: Growth Rate of COc1ccccc1C(=O)Nc1cccc(NC(=O)c2cccc(C)c2)c1 . Value?
Return: 0.91

Enquiry: Which Growth Rate is reported for this compound? Cl.O=c1cc(C2CCNCC2)n2nc3cccc(Cl)c3c2[nH]1
Return: 0.58

Enquiry: Item under review: CCCCCCCN(CCc1ccc(SC(C)(C)C(=O)O)cc1)C(=O)Nc1ccc(F)cc1F . Reported Growth Rate?
Return: 0.73

Enquiry: Given COc1ccc(CC[C@@H](OC(=O)[C@H]2CCCCN2C(=O)[C@@H](c2cc(OC)c(OC)c(OC)c2)C2CCCCC2)c2cccc(OCCN3CCOCC3)c2)cc1OC , state its recorded Growth Rate.
Return: 0.72

Enquiry: Which measured Growth Rate value corresponds to CN1CCCN(C(=O)c2cccc(-c3ccc(/C=C4/C(=O)Nc5ccc(Cl)cc54)o3)c2)CC1 ?
Return: -0.63
